Data provenance: the supplement of paper PMC10981050

- Tested on: K562;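 further: after 48 h exposure read by CellTiter-Glo luminescence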
- TEST: cell viability relative to vehicle control; higher = less cytotoxic
- MEASUREMENT CONDITIONS: 10 µM; SRSF2 genotype: SRSF2 wt/wt
Structures can show the parent of a compound that is named as a salt.
ASSAY ENDPOINT: cell viability (%)
Numbers only, in %.

O=C(NCCN1CCOCC1)c1ccc(Cl)cc1 | 106

// for each compound in input: emit cell viability
1. CC[C@H]1OC(=O)C[C@@H](O)[C@H](C)[C@@H](O[C@@H]2O[C@H](C)[C@@H](O)[C@H](N(C)C)[C@H]2O)[C@@H](CCN2C[C@H](C)C[C@H](C)C2)C[C@@H](C)C(=O)/C=C/C(C)=C/[C@@H]1CO[C@@H]1O[C@H](C)[C@@H](O)[C@@H](OC)[C@H]1OC
2. O=C(c1ccc(OCCN2CCCCC2)cc1)c1c(-c2ccc(O)cc2)sc2cc(O)ccc12 [Evista (Raloxifene Hydrochloride)]

Key:
99.4
81.3

// for each compound in input: emit cell viability
1. OCCOc1ccc(/C(=C(/CCCl)c2ccccc2)c2ccccc2)cc1
2. Cc1cc([N+](=O)[O-])ccc1NS(=O)(=O)c1cc(Cl)ccc1Cl

Key:
[96.5, 86.3]

// for each compound in input: emit cell viability
1. NC(=O)OCC(COC(N)=O)c1ccccc1 [Felbamate]
2. O=C(/C=C/c1ccc(O)c2c1[C@H](C(=O)O)[C@@H](c1ccc(O)c(O)c1)O2)O[C@H](Cc1ccc(O)c(O)c1)C(=O)O
3. CC(=O)O[C@H]1C(=O)[C@@]2(C)[C@H]([C@H](OC(=O)c3ccccc3)[C@]3(O)C[C@H](OC(=O)[C@H](O)[C@@H](NC(=O)c4ccccc4)c4ccccc4)C(C)=C1C3(C)C)[C@]1(OC(C)=O)CO[C@@H]1C[C@@H]2O
4. CC(=CCNc1ncnc2nc[nH]c12)CO [Trans-Zeatin]
5. CCn1c(-c2nonc2N)nc2c(C#CC(C)(C)O)ncc(OC[C@H]3CCCNC3)c21
6. O=C(O)Cc1ccc(O)cc1 [4-Hydroxyphenylacetic acid]

Key:
1: 94.4; 2: 96; 3: 35.7; 4: 104; 5: 79.5; 6: 101
